- experimentalTarget: Tyrosine-protein kinase SYK (Homo sapiens)
- method: Inhibitory activity against Syk C-terminal SH2.
- Type: functional
measuredAttribute: IC50 (µM)

>  <compound>
O=C(O)CCCCCN(CCCC1CCCCC1)S(=O)(=O)/C=C/c1ccc(NC(=O)[C@H]2CC[C@H](C(C(=O)O)C(=O)O)CC2)cc1

>  <experimentalTarget>
Tyrosine-protein kinase SYK (Homo sapiens)

>  <experimentalResult>
38

$$$$
>  <compound>
CC(C)CCCCN(CCCCCC(=O)O)S(=O)(=O)/C=C/c1ccc(NC(=O)C2CC=C(C(C(=O)O)C(=O)O)CC2)cc1 (stereo not given)

>  <experimentalTarget>
Tyrosine-protein kinase SYK (Homo sapiens)

>  <experimentalResult>
71

$$$$
>  <compound>
O=C(O)CCCCCN(CCCC1CCCCC1)S(=O)(=O)/C=C/c1ccc(NC(=O)[C@H]2CC[C@@H](C(C(=O)O)C(=O)O)CC2)cc1

>  <experimentalTarget>
Tyrosine-protein kinase SYK (Homo sapiens)

>  <experimentalResult>
40

$$$$
>  <compound>
O=C(O)C(C(=O)O)c1ccccc1

>  <experimentalTarget>
Tyrosine-protein kinase SYK (Homo sapiens)

>  <experimentalResult>
12000

$$$$
>  <compound>
O=C(O)C(C(=O)O)C1CC/C=C\CCC1 (stereo not given)

>  <experimentalTarget>
Tyrosine-protein kinase SYK (Homo sapiens)

>  <experimentalResult>
7700

$$$$
>  <compound>
O=C(O)CCCCCN(CCCC1CCCCC1)S(=O)(=O)/C=C/c1ccc(NC(=O)C2CC=C(C(C(=O)O)C(=O)O)CC2)cc1 (stereo not given)

>  <experimentalTarget>
Tyrosine-protein kinase SYK (Homo sapiens)

>  <experimentalResult>
41

$$$$
>  <compound>
O=C(O)C(C(=O)O)C1CCCCC1

>  <experimentalTarget>
Tyrosine-protein kinase SYK (Homo sapiens)

>  <experimentalResult>
5900

$$$$
>  <compound>
CC(C)CCCCN(CCCCCC(=O)O)S(=O)(=O)/C=C/c1ccc(NC(=O)[C@H]2CC[C@H](C(C(=O)O)C(=O)O)CC2)cc1

>  <experimentalTarget>
Tyrosine-protein kinase SYK (Homo sapiens)

>  <experimentalResult>
69

$$$$
>  <compound>
CC(C)CCCCN(CCCCCC(=O)O)S(=O)(=O)/C=C/c1ccc(NC(=O)[C@H]2CC[C@@H](C(C(=O)O)C(=O)O)CC2)cc1

>  <experimentalTarget>
Tyrosine-protein kinase SYK (Homo sapiens)

>  <experimentalResult>
63

$$$$
>  <compound>
O=C(O)CCCCCNS(=O)(=O)/C=C/c1ccc(NC(=O)[C@H]2CC[C@H](C(C(=O)O)C(=O)O)CC2)cc1

>  <experimentalTarget>
Tyrosine-protein kinase SYK (Homo sapiens)

>  <experimentalResult>
350

$$$$
